Tested on: EGFR (human), P00533 [G719C; 746-750 del]
Test: KINOMEscan competition binding
Conditions: compound 10.0 µM
Each item that follows carries a reported kinase still bound, per cent of control.
Entry rule: numbers only, all in %.

molecule=COc1cc(N2CCC(O)CC2)ccc1Nc1ncc2c(n1)N1CCc3cccc(c31)C(=O)N2C target_desc="EGFR (human), P00533 [G719C; 746-750 del]" value_measured=78
molecule=COc1cc(N2CCC(O)CC2)ccc1Nc1ncc2c(n1)N(c1ccccc1)CCC(=O)N2C target_desc="EGFR (human), P00533 [G719C; 746-750 del]" value_measured=30
molecule=CN1CCN(c2ccc(C(=O)Nc3ncc4c(n3)N(C)c3ccccc3C(=O)N4C)cc2)CC1 target_desc="EGFR (human), P00533 [G719C; 746-750 del]" value_measured=100
molecule=CN1C(=O)c2ccccc2N(C)c2nc(NS(=O)(=O)c3ccc(N)cc3)ncc21 target_desc="EGFR (human), P00533 [G719C; 746-750 del]" value_measured=100
molecule=COc1cc(N2CCN(C)CC2)ccc1Nc1ncc2c(n1)N(C)c1sccc1C(=O)N2C target_desc="EGFR (human), P00533 [G719C; 746-750 del]" value_measured=82
molecule=COc1cc(N2CCN(C)CC2)ccc1Nc1ncc2c(n1)N(c1ccccc1)CCC(=O)N2 target_desc="EGFR (human), P00533 [G719C; 746-750 del]" value_measured=12
molecule=COc1cc(N2CCN(C)CC2)ccc1Nc1ncc2c(n1)N(C)c1ccccc1N(C)C2=O target_desc="EGFR (human), P00533 [G719C; 746-750 del]" value_measured=61
molecule=COc1cc(N2CCN(CCO)CC2)ccc1Nc1ncc2c(n1)N(C1CCCC1)CCC(=O)N2C target_desc="EGFR (human), P00533 [G719C; 746-750 del]" value_measured=28

Recorded kinase still bound, per cent of control of COc1cc(N2CCC(C)(O)CC2)ccc1Nc1ncc2c(n1)N(C1CCCC1)CCC(=O)N2C , please.
10

Recorded kinase still bound, per cent of control of O=C1NC(=O)/C(=C/c2ccc(-c3ccc(F)cc3O)o2)S1 , please.
15

Recorded kinase still bound, per cent of control of O=C1NC(=O)/C(=C/c2c[nH]c(=O)c(-c3ccc(N4CCNCC4)nc3)c2)S1 , please.
95
